In this section we review reported Kd values for a set of molecules.
- SUBJECT OF TEST: FGFR2 (Homo sapiens, UniProt P21802)
- Construct: made in house; host or cells: E. coli (BL21-derived), T7 phage
- Sequence (P21802 22-821): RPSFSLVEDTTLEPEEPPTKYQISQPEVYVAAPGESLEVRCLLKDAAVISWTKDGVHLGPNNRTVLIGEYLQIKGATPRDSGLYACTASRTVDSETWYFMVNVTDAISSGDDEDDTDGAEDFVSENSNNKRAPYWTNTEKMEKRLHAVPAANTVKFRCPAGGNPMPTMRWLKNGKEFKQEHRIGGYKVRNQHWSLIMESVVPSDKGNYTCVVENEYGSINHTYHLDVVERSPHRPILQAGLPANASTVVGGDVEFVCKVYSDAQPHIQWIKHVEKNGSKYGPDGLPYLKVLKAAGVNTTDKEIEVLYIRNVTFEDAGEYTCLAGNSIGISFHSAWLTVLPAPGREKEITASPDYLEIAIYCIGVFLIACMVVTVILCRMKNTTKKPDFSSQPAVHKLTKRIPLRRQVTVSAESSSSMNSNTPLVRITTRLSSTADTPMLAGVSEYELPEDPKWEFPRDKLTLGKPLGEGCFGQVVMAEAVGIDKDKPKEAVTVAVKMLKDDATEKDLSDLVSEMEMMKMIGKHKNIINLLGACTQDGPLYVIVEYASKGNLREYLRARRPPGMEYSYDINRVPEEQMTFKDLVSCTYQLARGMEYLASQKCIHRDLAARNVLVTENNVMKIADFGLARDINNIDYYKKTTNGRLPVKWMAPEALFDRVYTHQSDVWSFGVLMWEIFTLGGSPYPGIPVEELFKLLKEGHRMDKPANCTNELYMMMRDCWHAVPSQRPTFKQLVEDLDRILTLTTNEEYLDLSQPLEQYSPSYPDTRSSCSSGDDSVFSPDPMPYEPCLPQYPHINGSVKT
- ASSAY: Kinase binding assay (kinase-tagged T7 phage, affinity beads, qPCR), Kd
- MEASUREMENT PARAMETERS: read-out: FGFR2 (Kd nM)

SMILES | SUBJECT OF TEST | OBSERVED
C[C@@H](Oc1ccc2[nH]nc(-c3cnc(N4CC(C)(CS(C)(=O)=O)C4)c(F)c3)c2c1F)c1c(Cl)cncc1Cl | FGFR2 (Homo sapiens, UniProt P21802) | > 1000 nM

input: Value lookup for Kd; key = C[C@@H](Oc1ccc2[nH]nc(-c3cnc(N4CC(C)(N5C[C@@H]6C[C@H]5CO6)C4)c(F)c3)c2c1)c1c(Cl)cncc1Cl
output: 1 to 50 nM

input: Then C[C@@H](Oc1ccc2[nH]nc(-c3cnc(N4CC(C)(NCCS(C)(=O)=O)C4)c(F)c3)c2c1)c1c(Cl)cncc1Cl ?
output: 1 to 50 nM

----------
Listed here are molecules together with their documented Kd.
- SUBJECT OF TEST: FGFR1 (Homo sapiens, UniProt P11362)
- Construct: made in house; host or cells: E. coli (BL21-derived), T7 phage
- Sequence (P11362 22-822): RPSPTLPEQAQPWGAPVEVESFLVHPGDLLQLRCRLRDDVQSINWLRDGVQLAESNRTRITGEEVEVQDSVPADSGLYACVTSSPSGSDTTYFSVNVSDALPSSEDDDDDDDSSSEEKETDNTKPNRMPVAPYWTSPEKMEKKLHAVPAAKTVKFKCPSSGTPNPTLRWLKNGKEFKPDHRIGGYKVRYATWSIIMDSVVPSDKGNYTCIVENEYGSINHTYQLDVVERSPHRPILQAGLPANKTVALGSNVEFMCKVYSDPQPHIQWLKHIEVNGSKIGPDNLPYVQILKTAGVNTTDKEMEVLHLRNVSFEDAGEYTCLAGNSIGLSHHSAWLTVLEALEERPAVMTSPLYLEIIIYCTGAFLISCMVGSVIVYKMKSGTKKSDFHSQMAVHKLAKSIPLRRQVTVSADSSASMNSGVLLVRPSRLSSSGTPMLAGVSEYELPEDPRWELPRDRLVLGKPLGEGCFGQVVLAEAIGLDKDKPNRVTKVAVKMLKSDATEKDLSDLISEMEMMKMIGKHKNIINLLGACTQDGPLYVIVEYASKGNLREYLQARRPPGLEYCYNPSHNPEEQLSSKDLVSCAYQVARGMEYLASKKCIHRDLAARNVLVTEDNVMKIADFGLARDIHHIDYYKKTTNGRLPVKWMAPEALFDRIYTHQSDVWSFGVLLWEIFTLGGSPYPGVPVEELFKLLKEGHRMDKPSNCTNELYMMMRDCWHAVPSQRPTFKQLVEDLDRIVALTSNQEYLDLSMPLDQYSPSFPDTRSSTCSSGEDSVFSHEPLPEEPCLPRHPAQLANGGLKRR
- ASSAY: Kinase binding assay (kinase-tagged T7 phage, affinity beads, qPCR), Kd
- MEASUREMENT PARAMETERS: read-out: FGFR1 (Kd nM)

MOLECULE | OBSERVED
C[C@@H](O)CNC1(C)CN(c2ncc(-c3n[nH]c4ccc(O[C@H](C)c5c(Cl)cncc5Cl)cc34)cc2F)C1 | 1 to 50 nM
Cc1ncc(Cl)c([C@@H](C)Oc2ccc3[nH]nc(-c4cnc(N5CC(C)(OC(C)C)C5)c(C#N)c4)c3c2)c1Cl | > 1000 nM
C[C@@H](Oc1ccc2[nH]nc(-c3cnc(N4CC(C)(N5CCCC5)C4)c(F)c3)c2c1F)c1c(Cl)cncc1Cl | 50 to 300 nM
COc1cc2[nH]nc(-c3cnc(N4CC(N)(CCS(C)(=O)=O)C4)c(C#N)c3)c2cc1O[C@H](C)c1c(Cl)cncc1Cl | 1 to 50 nM
C[C@@H](Oc1ccc2[nH]nc(-c3cnc(N4CC(C)(NCC5CC5)C4)nc3)c2c1)c1c(Cl)cncc1Cl | 1 to 50 nM

Now for the molecule whose Kd we want.
input: Kd lookup needed for C[C@@H](Oc1cc2c(-c3cnc(N4CC(C)(NCC5CC5)C4)c(F)c3)n[nH]c2cc1F)c1c(Cl)cncc1Cl , thanks.
output: 1 to 50 nM

----------
- Test system: KG-1 cell line (FGFR 1-fusion)
- ASSAY: Cancer cell line cell viability assay (Cell Titer-Glo), 72 hr
- Type: cell-based
- MEASUREMENT PARAMETERS: Homo sapiens, KG-1, KG-1 cell line (FGFR1-fusion)
pIC50: −log10 of the molar value.
Let's look at some compounds and their measured pIC50.

SMILES | RESULT TYPE | OBSERVED
CC(C)=CCC1(N)CN(c2ccc(-c3n[nH]c4ccc(O[C@H](C)c5c(Cl)cncc5Cl)cc34)nn2)C1 | pIC50 | < 6.00
C[C@@H](Oc1ccc2[nH]nc(-c3cnc(N4CC(C)(NCC(C)(C)O)C4)c(F)c3)c2c1F)c1c(Cl)cncc1Cl | pIC50 | < 6.00
C[C@@H](Oc1ccc2[nH]nc(-c3ccc(N4CC(N)(CCS(C)(=O)=O)C4)nn3)c2c1)c1c(Cl)cncc1Cl | pIC50 | < 6.00
COc1cc2[nH]nc(-c3cnc(N4CC(C)(NCC5CC5)C4)c(C#N)c3)c2cc1O[C@H](C)c1c(Cl)cncc1Cl | pIC50 | 6.70 to 7.30
C[C@@H](Oc1ccc2[nH]nc(-c3ccc(N4CC(C)(CS(C)(=O)=O)C4)nc3)c2c1)c1c(Cl)cncc1Cl | pIC50 | 6.70 to 7.30
C[C@@H]1CN(C2(C)CN(c3ccc(-c4n[nH]c5ccc(O[C@H](C)c6c(Cl)cncc6Cl)cc45)cn3)C2)CCO1 | pIC50 | 6.70 to 7.30
CC(C)NCC1(C)CN(c2ncc(-c3n[nH]c4ccc(O[C@H](C)c5c(Cl)cncc5Cl)cc34)cc2F)C1 | pIC50 | 7.30 to 10.00
COc1cc2[nH]nc(-c3cnc(N4CC(C)(NCP(C)(C)=O)C4)c(C#N)c3)c2cc1O[C@H](C)c1c(Cl)cncc1Cl | pIC50 | < 6.00
COc1cc2[nH]nc(-c3cnc(N4CC(C)(N(C)C)C4)nc3)c2cc1O[C@H](C)c1c(Cl)cncc1Cl | pIC50 | 7.30 to 10.00
COc1cc2[nH]nc(-c3cnc(N4CC(N)(CC#N)C4)c(C#N)c3)c2cc1O[C@H](C)c1c(Cl)cncc1Cl | pIC50 | 6.70 to 7.30

input: What measured pIC50 goes with C[C@@H](Oc1ccc2[nH]nc(-c3cnc(N4CC(C)(NCCC(F)F)C4)c(C#N)c3)c2c1)c1c(Cl)cncc1Cl ?
output: 6.00 to 6.70

input: Repeat for the following compound: CCCNC1(C)CN(c2ccc(-c3n[nH]c4ccc(O[C@H](C)c5c(Cl)cncc5Cl)cc34)cn2)C1
output: 6.70 to 7.30

input: And CCOCC1(N)CN(c2ncc(-c3n[nH]c4ccc(O[C@H](C)c5c(Cl)cncc5Cl)cc34)cc2F)C1 ?
output: 6.70 to 7.30

input: Another: CC(=O)N1CCN(C2(C)CN(c3ncc(-c4n[nH]c5ccc(O[C@H](C)c6c(Cl)cncc6Cl)cc45)cc3F)C2)CC1
output: 6.70 to 7.30

----------
- Tested on: KG-1 cell line (FGFR 1-fusion)
- ASSAY: Cancer cell line cell viability assay (Cell Titer-Glo), 72 hr
- Format: cell-based
- MEASUREMENT PARAMETERS: Homo sapiens, KG-1, KG-1 cell line (FGFR1-fusion)
pIC50: −log10 of the molar value.
RESULT TYPE: pIC50

input: Returns the measured pIC50 for the input molecule. Input: COc1cc2[nH]nc(-c3cnc(N4CC(C)(NCC(F)F)C4)c(C#N)c3)c2cc1O[C@H](C)c1c(Cl)cncc1Cl
output: 6.70 to 7.30

input: Now try COc1cc2[nH]nc(-c3cnc(N4CC(C)(NCCO)C4)c(C#N)c3)c2cc1O[C@H](C)c1c(Cl)cncc1Cl .
output: 6.00 to 6.70

----------
- SUBJECT OF TEST: FGFR1 (Homo sapiens)
- Construct: made in house; host or cells: E. coli (BL21-derived), T7 phage
- ASSAY: Kinase binding assay (kinase-tagged T7 phage, affinity beads, qPCR), Kd
pKd: −log10 of the molar value.
RESULT TYPE: pKd

input: Missing value: pKd, FGFR1 (Homo sapiens), entry COP(=O)(CC1(C)CN(c2ncc(-c3n[nH]c4ccc(O[C@H](C)c5c(Cl)cncc5Cl)cc34)cc2F)C1)OC . Fill in?
output: 7.30 to 9.00

----------
- System: KG-1 cell line (FGFR 1-fusion)
- ASSAY: Cancer cell line cell viability assay (Cell Titer-Glo), 72 hr
- Format: cell-based
- MEASUREMENT PARAMETERS: Homo sapiens, KG-1, KG-1 cell line (FGFR1-fusion)
Reported IC50 values follow for various molecules

Answered cases to consult:
MOLECULE | SUBJECT OF TEST | IC50
C[C@@H](Oc1ccc2[nH]nc(-c3cnc(N4CC(C)(NC(=O)CN(C)C)C4)c(F)c3)c2c1)c1c(Cl)cncc1Cl (stereo in doubt) [Example 156] | KG-1 cell line (FGFR 1-fusion) | 50 to 200 nM
C[C@@H](Oc1ccc2[nH]nc(-c3cnc(N4CC(N)(Cc5ccn(C)n5)C4)c(F)c3)c2c1)c1c(Cl)cncc1Cl [Example 282] | KG-1 cell line (FGFR 1-fusion) | 50 to 200 nM
C[C@@H](Oc1ccc2[nH]nc(-c3ccc(N4CC(C)(N5CCC5)C4)nc3)c2c1)c1c(Cl)cncc1Cl [Example 116] | KG-1 cell line (FGFR 1-fusion) | 0.1 to 50 nM
C=CCC1(N)CN(c2ccc(-c3n[nH]c4ccc(O[C@H](C)c5c(Cl)cncc5Cl)cc34)nn2)C1 [Example 274] | KG-1 cell line (FGFR 1-fusion) | 50 to 200 nM
C[C@@H](Oc1ccc2[nH]nc(-c3cnc(N4CC(C)(N5CC(C)(O)C5)C4)c(C#N)c3)c2c1)c1c(Cl)cncc1Cl [Example 100] | KG-1 cell line (FGFR 1-fusion) | 50 to 200 nM

input: Reported IC50, molecule C=CCC1(N)CN(c2ncc(-c3n[nH]c4cc(OC)c(O[C@H](C)c5c(Cl)cncc5Cl)cc34)cc2C#N)C1 [Example 362] : ____
output: 50 to 200 nM

input: Now consider Cc1ncc(Cl)c([C@@H](C)Oc2ccc3[nH]nc(-c4ccc(N5CC(C)(NC6COC6)C5)nc4)c3c2)c1Cl [Example 70] .
output: 50 to 200 nM

Measured values drawn from patent US20250368666A1 for this set.
